Target under test: Recombinant human TDO comprising amino acids 19-407 (Homo sapiens (Human))
Sequence (P48775 19-406 limits assumed): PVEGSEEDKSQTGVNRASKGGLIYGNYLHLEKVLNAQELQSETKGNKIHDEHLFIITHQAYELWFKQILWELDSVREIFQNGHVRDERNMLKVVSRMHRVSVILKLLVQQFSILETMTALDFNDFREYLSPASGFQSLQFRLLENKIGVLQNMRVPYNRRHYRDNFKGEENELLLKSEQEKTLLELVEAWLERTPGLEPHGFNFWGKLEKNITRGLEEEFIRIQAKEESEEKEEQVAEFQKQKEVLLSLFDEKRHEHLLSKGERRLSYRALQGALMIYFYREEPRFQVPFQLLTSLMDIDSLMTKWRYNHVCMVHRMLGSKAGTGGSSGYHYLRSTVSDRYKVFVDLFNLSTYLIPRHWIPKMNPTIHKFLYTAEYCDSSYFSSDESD
Assay name: TDO2 enzymatic assay (TDO inhibitory activity)
Type: biochemical
Condition context: 15 nM enzyme, 200 μM L-tryptophan, pH7, 30 min pre-incubation, NFK quantified by LCMS; mean values if measured multiple times; read-out: hTDO activity (IC50 in nM)
Property measured: IC50 (nM)
Report only the number, with the unit nM understood.

OC(CC1CCCCC1c1ccccc1)c1c(C2CC2)sc2cncn12 (centres unmarked) ... 9460
CC(C)c1sc2cncn2c1[C@@H](O)CC1CCCCC1 ... 386

Looking for the measured IC50 of COC1CCC(CC(O)c2c(C3CC3)sc3cncn23)CC1 (racemic) , can you help?
1330

For the molecule shown here, OC(c1c(C2CC2)sc2cncn12)C1CCCC(C(F)(F)F)C1 (centres unmarked) , give the reported IC50.
1080

Fill blank: measured IC50 of the molecule O[C@@H](CC1CCCCC1)c1c(C2CCC2)sc2cncn12 is ____.
129

Param item = CCc1sc2cncn2c1[C@H](O)CC1CCCCC1 [Example 100b] ; retrieve measured IC50.
9950

Item Cc1sc2cncn2c1C(O)c1ccccc1 (racemic) has what recorded IC50?
1000

Which IC50 reading was recorded for the molecule COCc1sc2cncn2c1C(O)C1CCCCC1 (racemic) ?
327

Given the entry CC1CCCC(C(O)c2c(C3CC3)sc3cncn23)C1 (centres unmarked) , report its measured IC50.
384

Looking for the measured IC50 of CC(C)C1(C)CCC(C(O)c2c(C3CC3)sc3cncn23)C1 (centres unmarked) , can you help?
579
